test: soluble fraction after stress (log2 fold change); higher = more stays soluble; pooled small domains, quantitative proteomics; conditions: stress: 50 degC
Label scheme for soluble fraction (log2): lower than 0.09 is 0, 0.09 and above is 1.

Worked examples, 5 sequences total:
HMNTKLSYSDLIEKIEAGQVEKVELDAGGSSAIVKLKNDNIEKRVNVPSIDNLMENLQDNMKTGNISVTE 1
HMDAEWRTLTLAPEQHQQRLDRALADSLPEFSRSYVQQLIDTGMVRVNGVLAAKSAQRVKALDQVQVELR 0
HMKNNYQYIVDQIKQLILDGELIVGDRLPSERDLSEMYQVSRASVREALKALETIGLLESRHGGGNYIVNH 0
HMNYSIVNVGFNNKSLFLRSAPGYSASRLLLPFATERAFVRETLSNGWSRVIVRGTEGYLPTEYVAD 1
HMKEDSTIIERIISNLSSASLKTQKAFEYKLTDLMFRFSEGEYEWSSAMEVIREELLPFLNK 0

Quick check, soluble fraction (log2) >= 0.09? HMSGKWSILILHALEQGPKRFNVLHRELSGITQATLTKQLRQLEEDGIILRKAYPQIPPKVEYQLTEIG
0

Quick check, soluble fraction (log2) >= 0.09? HMRIAGIDIPDNKRGEVALTYIFGIGRSSSKKILKSAGIDSDKQIGKWTDDESNLVRKLIRDEYTIEGDL
0

Quick check, soluble fraction (log2) >= 0.09? HMDLMQRVIIVRPVMQGDYLTRAHLGLQTLSRNGGGGFTDIDDLVGRRAKKSLRAGLVVHNRHL
0

Quick check, soluble fraction (log2) >= 0.09? HMSDDLIILGYSMLNNALKAFHIDPDSIKKKHWDKLAQDYHLKNKNQILTDIALGKRVNIMVAHQLTTIMD
0

Quick check, soluble fraction (log2) >= 0.09? HMEIPTEEILKQKLYYSISEVASWFKVNTSLLRYWENEFDILQPRKTRKGDRLFRVEDIKNLQLIYLL
1

Quick check, soluble fraction (log2) >= 0.09? HMGKPSSEELEALGRRTLEENVDVVEEILGGRDPKGKKIKYLEGLMMRALRGQETPEAVRRTLEELIFK
0

Quick check, soluble fraction (log2) >= 0.09? HMIDYTDTSAVKDSAAVAGRVREMINEGVPIADVNAFIRSASENGLISDDSARRLRYMNDSR
0

Quick check, soluble fraction (log2) >= 0.09? HMNKPTSMYKLRLLLKHYHAGASKRWMADVLDISRSTLNVYLARIESLNLAFEEWEALSDLEVSRLLINP
0

Quick check, soluble fraction (log2) >= 0.09? HMARNHYETLGVGRTATGDEIRKAYRSEAQKHHPDRGGDAERMQSLNEARDTLLDDQARAAYDQELDL
1

Quick check, soluble fraction (log2) >= 0.09? HMSSEITYDKFIEMVDKDQVKEVTLQSGVLTVVPKIQKSYYQNASYKVNQMEDVDALTKRLEGTGIVFHY
0

Quick check, soluble fraction (log2) >= 0.09? HMQVITEPFQEKYREFINMSTVTQRLEERETLSFTAQTVEGRWLTIIIVPQGYDKTGKLSTVLVANR
1

Quick check, soluble fraction (log2) >= 0.09? HMSVEYRKTLSDGNEYQIVKEKNGYVIKKSLNEGLDYLEPMKNRKYYSSYSQAFKRLNLIAKEVNINEGYD
0

----------
assay: soluble fraction after stress (log2 fold change); higher = more stays soluble; pooled small domains, quantitative proteomics; conditions: stress: 50 degC
value_type: soluble fraction (log2)
Quick one: just the number, no unit, thanks!

HMGMVDKSMYSRYDVGDLVKVLRGPLEGSEGHITEINTDTGTVKVETVFFGRSTVVEVDFSEIDK -0.281
HMDPEEETLKNMQRMLQDSGPLKKTEFSLLAKSLGIAEKKARKLIDRGRGRFWTVESGEQKNTQLVTPIQ -0.0247
HMANLLNLREIPVANIRPELTMFLIPGENITQAFQTIRDQVVFTNKRLIVANVQGLTGKKVSYTSYPY -0.374

Then this sequence:
Bench note: what soluble fraction (log2) did HMQISDVSLIAKVIDDVIDNNVKSVSDYLEGNLNVLRFLVGQVMKETKGKANPQKATELLQEKLESLNN show?
-0.429

----------
This section presents sequences with their documented soluble fraction (log2) values.
assay: soluble fraction after stress (log2 fold change); higher = more stays soluble; pooled small domains, quantitative proteomics; conditions: stress: 50 degC
Quick one: just the number, no unit, thanks!

Illustrative cases are given below, each with its answer.
HMRDGYEKPTEVGEGGRNPAMLSYIGHLRAKGHLSEEDIRSMAHGFNATTFDPPLDRDEVDGLVSRY 0.124
HMTKINAPMPGNILDVKVNVGDHVEANQLVLMLEAMKMENEIFTPVAGTVVGVHVKKGDSVNSDDLLISI -0.228
HMDSLARKTVNGAEFYIYPVESAEGFYSLRRKFGVSQEEVIKYNPSAQNGLKSGQVLLIPVT -0.176
HMKEAITVIGGKNNITFDASAQAEIGIYSMDGVQIQKKTISDNERIDLPAGMYVVTVKTGQANVSKVVVV 0.00681
HMDQILIHLKEGIDVTDVQPMLKALDLNVRMFNRDKNIIVISVLNRELDAIPQTIAALRPWEELFDSA -0.00536
HMVMPTGRVRYYDAEKGFGFLSKDSGGDDVYVRSSALPAGVTSLKRGQKVEFGIIDGKRGEQALSVHLL -0.0933
HMSHLTKKQEEVLLFIRDYYEEEGRSPSYSDIQHHFGLKSKSSVQDYIGYLKKAGFLQKSVGSRAIELV -2.05
HMVKGIVPNLIGKTQDEAKQMAEEYGFSIGTVSEKASDKPKGTVIEQSPKAGAKASGVTSINIVVSDGS -0.0342
HMGTVFTDIMTDIASGKFPNVFPDSLEAQIQKNVTMAPDKLSATLQYGDKSVILPTTKGKEAAEAAVKAA -0.0555
HMGTRIQAVMEDIQSRIAARTYLPGTRLPSVRAQAQAMQVSVSTVVEAYERLAAEGVIASRPGSGFYVAGP -1.44

Bench note: what soluble fraction (log2) did HMDEVLDQFVRGQIYGYIRANPGDIYSSIRDNLGLKNGVTTYHLDVLAREEYVYSEIDGTNRRFYPSGWEE show?
-3.2

Bench note: what soluble fraction (log2) did HMKLINEDLNNEIVFEENKVNLLVIENKKKFVQFIQEIIKQINGDEGKFSLFDINTELKIHDKIDII show?
0.185

----------
experiment: soluble fraction after stress (log2 fold change); higher = more stays soluble; pooled small domains, quantitative proteomics; conditions: stress: 50 degC
value_type: soluble fraction (log2)
Quick one: just the number, no unit, thanks!

HMDPPQEVWDLTRSYLDSMNRPVHGHKSPQETYLRQVKSHRLPATALWDYFMAQRFHAVHATSESAA -0.0648

Bench note: what soluble fraction (log2) did HMDRVMPVPEALIGMRFDIAVSRMLGVSRSQAAAYIDRGQVSIAGRGSQRSAQKSEKLVQGDSIEVAIA show?
-0.318

Bench note: what soluble fraction (log2) did HMAGPGAEVVDRLIAVLTGERPATAADQVLLSILKGLGIGGVVLPSERTGLGWSGLYQRVKEITDMN show?
-1.29

Bench note: what soluble fraction (log2) did HMNSNISYSEFLSQVEKGTINSVEITGNSIKGIYADGGEFITFSPGDPGLIDKLQRSDIEILATPPA show?
-0.104

Bench note: what soluble fraction (log2) did HMKLIIVPNLVGQSRRSVEISLQQIGLRIDTVYTEFNPDYPKGTVAWQFPKSGDHIKKGMGLQITVSQG show?
-0.522

Bench note: what soluble fraction (log2) did HMNDVEAIDDALKDLHKVSPDLAALVEMKFFGGMTEPEISEILGVSERTVRREWEKARAALLVLLE show?
-1.41

Bench note: what soluble fraction (log2) did HMKTRTVVLKSAGGNKIAVIKIIKEITGLGLVEAKAVADNGGNIKENIPAEEAEAIKTQLTEAGAEVEL show?
-0.192

Bench note: what soluble fraction (log2) did HMLTKSVLGNQIKVLRLEKGLSQEEFGAPVDLSRSAVSQIESGQMYPSLESIGKIVKYYSTSWDNLVG show?
-0.821

----------
assay: soluble fraction after stress (log2 fold change); higher = more stays soluble; pooled small domains, quantitative proteomics; settings: stress: 50 degC
Label scheme for soluble fraction (log2): lower than -0.1 is Not fulfilled, -0.1 and above is Fulfilled.

HMSVPRVWTDIQGRRVKGDFEGLRGDLVVLRVGGKSYAFPLVRLIASDQAYARSLVAGNPSK Not fulfilled

We next turn to a different sequence, shown below.
Quick check, soluble fraction (log2) >= -0.1? HMDALKAVYQWVTRTMMKNQTGVMQTLPNRDLIELNTQITAQRLMQAGVDPTTLKNANQVENAVNIIESR
Not fulfilled

----------
test: soluble fraction after stress (log2 fold change); higher = more stays soluble; pooled small domains, quantitative proteomics; conditions: stress: 50 degC
Label scheme for soluble fraction (log2): lower than -0.4 is -1, -0.4 and above is 1.

Worked examples, 5 sequences total:
HMKNHIEERRKARGMTQQQLASELGVSRQTIISLENGKYNPSILLAHSIARLFGERIEDIFILR -1
HMTGDIGAEAAKAAALAHAGVTESQTAKMKVDRDWDDGRLEYDVEFDVGRTEYEYTIDGVTGAVLEYEQDI 1
HMKNNLKGSPIIIAGGYGVGSKENFNLLFDLAKVLNAEVGASRAAVDAGFVEHDRQIGQTGVTVRP 1
HMKKSGFFSAGDRIQLTDNKGRQYSFNITEGKEFHTHQGFIKHDDLIGMPEGSVVSINSTTGVVQKFMAF 1
HMVVPSNPDELKGSFSLAEVASGYGLEVAAILEKAGWPADTDPNVKMRDAANAIGRDSTDIRNAVKALLKS 1

Quick check, soluble fraction (log2) >= -0.4? HMVRSEDLIGLQGRITLATDVETRGFVELSVKGSLLRRPALSLKGPLAKNTAVVVTASNDHTLEVEAL
-1

Quick check, soluble fraction (log2) >= -0.4? HMTKIAFPQMLNKYRLQKNLTMEQLAEEVGKTKSTISKWEAGTRSPKIYEIEEIAKYFGVEPQTMMF
-1
